Numbers sourced from patent US20260242478A1.

Catalogue of binders with associated IC50
Molecular target: T1, anti-CD28 scFv (disulfide)
T1 construct: also called Anti-CD28 scFv (VH - linker 1 - VL) Disulfide mutation: G44C, G235C
T1 sequence (scFv, as listed by the source): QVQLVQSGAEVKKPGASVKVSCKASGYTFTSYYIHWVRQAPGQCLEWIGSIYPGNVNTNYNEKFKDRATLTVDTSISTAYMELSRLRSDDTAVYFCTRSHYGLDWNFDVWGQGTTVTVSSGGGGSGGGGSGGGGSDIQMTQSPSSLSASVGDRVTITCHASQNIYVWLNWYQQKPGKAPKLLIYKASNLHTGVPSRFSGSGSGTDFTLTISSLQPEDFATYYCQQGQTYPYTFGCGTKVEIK
Assay: competition ELISA, peptide titrated 0-100 uM against 0.3 nM anti-CD28 scFv (disulfide), plate-bound CD28 as competitor

Answered examples (4):
                        binder  measurementtype  testvalue
0  ACDTYFAGMINECF [Peptide-79]             IC50   > 100 µM
1  WCWDYKLWVPMTCP [Peptide-85]             IC50   > 100 µM
2  YCAGHSPINIGKCL [Peptide-84]             IC50   > 100 µM
3  MDWCPRDLWVHCFA [Peptide-41]             IC50    61.5 µM

### Prompt Bench note: what IC50 did YCAGHAWQYINKCL [Peptide-87] show?
### Response > 100 µM
